- assayNotes: Pharmacokinetics in rats
- settings: rat, in vivo, iv 1 mg/Kg
propertyName: C0
# answer = value followed by unit

| molSmiles | C0 |
| --- | --- |
| CC#C[C@@H](CC(=O)[O][Ca][O]C(=O)C[C@H](C#CC)c1ccc(OCc2cccc(CN3CCc4oc(C5CC5)nc4C3)c2)cc1)c1ccc(OCc2cccc(CN3CCc4oc(C5CC5)nc4C3)c2)cc1 | 10200 ng/mL |
| CC#C[C@@H](CC(=O)[O][Ca][O]C(=O)C[C@H](C#CC)c1ccc(OCc2cccc(CN3CCc4sc(C)cc4C3)c2)cc1)c1ccc(OCc2cccc(CN3CCc4sc(C)cc4C3)c2)cc1 | 5020 ng/mL |

Please examine the following record next.
[Q] Endpoint output: C0 of CC#C[C@@H](CC(=O)[O][Ca][O]C(=O)C[C@H](C#CC)c1ccc(OCc2cccc(CN3CCc4nc(Cl)sc4C3)c2)cc1)c1ccc(OCc2cccc(CN3CCc4nc(Cl)sc4C3)c2)cc1 . Value?
[A] 3390 ng/mL

---

- assayNotes: Pharmacokinetics in rats
- settings: rat, in vivo, po 3 mg/Kg vs iv 1 mg/Kg
propertyName: bioavailability (%)
Give the number; % is assumed, so skip it.

| molSmiles | bioavailability [%] |
| --- | --- |
| CC#C[C@@H](CC(=O)[O][Ca][O]C(=O)C[C@H](C#CC)c1ccc(OCc2cccc(CN3CCc4sc(C)cc4C3)c2)cc1)c1ccc(OCc2cccc(CN3CCc4sc(C)cc4C3)c2)cc1 | 83 |

[Q] Endpoint output: bioavailability of CC#C[C@@H](CC(=O)[O][Ca][O]C(=O)C[C@H](C#CC)c1ccc(OCc2cccc(CN3CCc4nc(Cl)sc4C3)c2)cc1)c1ccc(OCc2cccc(CN3CCc4nc(Cl)sc4C3)c2)cc1 . Value?
[A] 93

[Q] Endpoint output: bioavailability of CC#C[C@@H](CC(=O)[O][Ca][O]C(=O)C[C@H](C#CC)c1ccc(OCc2cccc(CN3CCc4oc(C5CC5)nc4C3)c2)cc1)c1ccc(OCc2cccc(CN3CCc4oc(C5CC5)nc4C3)c2)cc1 . Value?
[A] 45

---

- System: n-STZ rat model
- assayNotes: Oral glucose tolerance test in n-STZ rat model
- Format: in vivo, Wistar rat
- settings: n-STZ rat, 10 mg/Kg per oral
propertyName: % improvement in AUC glucose vs. control (%)
Give the number; % is assumed, so skip it.

| molSmiles | % improvement in AUC glucose vs. control [%] |
| --- | --- |
| CC#C[C@@H](CC(=O)[O][Ca][O]C(=O)C[C@H](C#CC)c1ccc(OCc2cccc(CN3CCc4oc(C5CC5)nc4C3)c2)cc1)c1ccc(OCc2cccc(CN3CCc4oc(C5CC5)nc4C3)c2)cc1 | 47 |
| CC#C[C@@H](CC(=O)[O][Ca][O]C(=O)C[C@H](C#CC)c1ccc(OCc2cccc(CN3CCc4sc(C)cc4C3)c2)cc1)c1ccc(OCc2cccc(CN3CCc4sc(C)cc4C3)c2)cc1 | 59.6 |
| CC#C[C@@H](CC(=O)[O][Ca][O]C(=O)C[C@H](C#CC)c1ccc(OCc2cccc(CN3CCc4nc(Cl)sc4C3)c2)cc1)c1ccc(OCc2cccc(CN3CCc4nc(Cl)sc4C3)c2)cc1 | 47 |
| CC#C[C@@H](CC(=O)O)c1ccc(OCc2cccc(CN3CCc4nc(C)sc4C3)c2)cc1 | 45.0 |
| CC#C[C@@H](CC(=O)O)c1ccc(OCc2cccc(CN3CCc4sc(C)cc4C3)c2)cc1 | 57.0 |

Please examine the following record next.
[Q] Endpoint output: % improvement in AUC glucose vs. control of CC#C[C@@H](CC(=O)[O][Ca][O]C(=O)C[C@H](C#CC)c1ccc(OCc2cccc(CN3CCc4nc(C)sc4C3)c2)cc1)c1ccc(OCc2cccc(CN3CCc4nc(C)sc4C3)c2)cc1 . Value?
[A] 44.7
